Catalogue of inhibition values
- tested-target: Nuclear receptor coactivator 1 (Homo sapiens)
- test-protocol: SRC1 coactivator transcriptional activity inhibitors, confirmation, cell-based, luminescence, quadruplicate (AID 588820);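 note: 0% = DMSO wells and 100% = gossypol 36 µM treated wells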
- experimental-parameters: HEK293 GAL4-SRC1 luciferase reporter, at 3.6 µM, stronger effect = higher value
API: value field is a number in %; no unit string.

Solved cases below.
# compound, inhibition [%]
measured = [
    ("O=C(NN=C(c1ccccc1)c1ccccn1)c1ccccc1", 36.7),
    ("COc1ccc2c(C#N)c3ccccn3c2c1", 37.4),
    ("COc1ccc(-c2csc3ncnc(N4CCN(CCO)CC4)c23)cc1", 0.84),
    ("CCCCN(c1ccccc1)c1ncnc(N)c1[N+](=O)[O-]", 64.5),
    ("Cc1c(C(=O)N2CCN(Cc3ccc4c(c3)OCO4)CC2)sc2ncnc(N3CCN(c4ccccc4)CC3)c12", 11.3),
    ("CCOC(=O)c1cc2sccc2n1CC(=O)N1CCc2ccccc21", 31.8),
]

Given `Cc1ccc(OCCN2CCN(C(=O)CCC(=O)Nc3nnc(CC(C)C)s3)CC2)cc1` , state its recorded inhibition.
2.56

Next entry: `O=C(CSc1nc2[nH]ncc2c(=O)[nH]1)N1CCCCC1`
-8.66

Next entry: `O=C(Nc1cccc(S(=O)(=O)Nc2ccccc2Cl)c1)c1ccc(Cl)nc1`
5.83

Next entry: `COc1ccccc1-n1cc([C@@H]2C[C@H]3CN(c4ccccc4)C(=O)[C@]34CCCN24)cn1`
26.6

Next entry: `Cn1c(O)c(N=NC(=N)N)c2ccccc21`
5.65

Next entry: `Nc1ccc(-c2nc3c(Cl)cc(N)cc3[nH]2)cc1`
-18.9

Next entry: `Cc1ccc(NC(=O)C2CCN(c3ncnc4sc(C)c(C)c34)CC2)cc1S(=O)(=O)N(C)C`
17.6

Next entry: `O=C(Nc1ccn(Cc2c(F)c(F)c(F)c(F)c2F)n1)c1ccc(COc2ccccc2Cl)cc1`
3.66

Next entry: `CN=c1scc(-c2cccs2)n1/N=C/c1ccccc1O`
80

Next entry: CC(=O)NC(C)c1cc(Cl)c2cccnc2c1O (stereo not drawn)
10.6

Next entry: `COc1ccc(CCNC(=O)[C@H](CCSC)NC(=O)N2CCn3c2nc2ccccc23)cc1OC`
1.44

Next entry: `O=C(Nc1cccnc1)c1ccc(C(=O)Nc2cccnc2)cc1`
23.3

Next entry: `O=[N+]([O-])c1cccc(C=NNc2ccc3ccccc3n2)c1O`
-90.4

Next entry: `Cc1cc2c(NCc3ccccc3)ncnc2s1`
5

Next entry: `COCCn1cnc2c1c(=O)n(Cc1ccccc1C#N)c(=O)n2Cc1ccccc1`
-22.2

Next entry: `CCc1ccc2oc(=O)cc(CN3CCN(Cc4ccccc4)CC3)c2c1`
-7.76

Next entry: `CN(Cc1cccnc1)C(=O)c1cc(COc2ccc3ncccc3c2)on1`
-14.7

* * *

- tested-target: Galanin receptor type 2 (Homo sapiens) (UniProt O43603)
- Sequence (O43603 whole entry, looked up): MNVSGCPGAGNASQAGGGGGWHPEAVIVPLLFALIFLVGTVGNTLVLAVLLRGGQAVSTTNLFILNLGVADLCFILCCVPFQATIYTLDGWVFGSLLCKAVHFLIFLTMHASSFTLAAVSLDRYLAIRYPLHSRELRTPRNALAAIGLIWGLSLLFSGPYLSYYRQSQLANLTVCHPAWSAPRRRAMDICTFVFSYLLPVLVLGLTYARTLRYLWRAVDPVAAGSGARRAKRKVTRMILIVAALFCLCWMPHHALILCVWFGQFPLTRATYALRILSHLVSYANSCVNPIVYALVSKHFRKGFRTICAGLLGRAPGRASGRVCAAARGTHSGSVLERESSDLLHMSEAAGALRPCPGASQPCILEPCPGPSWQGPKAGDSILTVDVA
- test-protocol: GALR2 antagonists, retest of hits, confirmation, cell-based (AID 866);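 note: cells stimulated with galanin at about its EC80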
- experimental-parameters: GALR2-expressing cells, antagonist mode, at 4 µM, stronger effect = higher value
The other results are listed elsewhere or left out.
readout: inhibition (%)
API: value field is a number in %; no unit string.

Solved cases below.
# smiles-string, units-text, inhibition
measured = [
    ("CC1=C/C(=N\\OS(=O)(=O)c2ccccc2)C=CC1=O", "%", 90),
    ("O=C(/C=C/Sc1ncn[nH]1)c1ccc(Cl)cc1", "%", 50.7),
]

Given `O=C(CNC(=O)OCc1ccccc1)Oc1cc2oc(=O)cc(-c3ccccc3)c2cc1Cl` , state its recorded inhibition.
33.2

* * *

- Test system: T-cell receptor (TCR)-CD3 interaction, human
- test-protocol: TCR-CD3 interaction inhibitors, retest, confirmation, biochemical, fluorescence, TAMRA-labeled TCR probe (AID 652036)
- experimental-parameters: TAMRA-labeled TCR probe fluorescence binding assay; at 9.4 µM; stronger effect = higher value
Some of the results follow.
Dear colleague, classification is by inhibition, with ranges listed here: range A: < 10%; range B: ≥ 10% and < 30%; range C: ≥ 30%

Study these solved cases before continuing.
# compound, tested-target, cat
data = [
    ("CN(C)[C@@H]1C(=O)C(C(N)=O)=C(O)[C@@]2(O)C(=O)C3=C(O)c4c(O)ccc(Cl)c4[C@@H](O)[C@H]3C[C@@H]12", "T-cell receptor (TCR)-CD3 interaction, human", "range A"),
    ("COc1ccccc1C(=O)NNC(=O)c1ccc(NC(=O)c2ccccc2)cc1", "T-cell receptor (TCR)-CD3 interaction, human", "range C"),
    ("COc1cccc2c1C(=O)c1c(O)c3c(c(O)c1C2=O)CC(O)(C(C)=NNC(=O)c1ccc(Cl)c(Cl)c1)CC3OC1CC(N)C(O)C(C)O1 (stereo not given)", "T-cell receptor (TCR)-CD3 interaction, human", "range C"),
]

Tag the class for `O=c1[nH]n(-c2ccc([N+](=O)[O-])cc2)c(=O)c2ccccc12`
range C

Next entry: `O=c1ccc2c(-c3ccccc3S(=O)(=O)O)c3ccc(O)c(O)c3oc-2c1O`
range A

* * *

- test-protocol: StAR promoter reporter inhibitors, counter-screen for LRH-1 inverse agonist project, cell-based, luminescence, high throughput (AID 651611)
- experimental-parameters: StAR promoter luciferase reporter counterscreen, at 3.6 µM, stronger effect = higher value
Decide using inhibition: a value greater than or equal to 30% is yes, a smaller one is no.

Study these solved cases before continuing.
# compound, cat
records = [
    ("CCCC(=O)NC(c1ccc(C)cc1)c1ccc2cccnc2c1O (stereo unspecified)", "yes"),
    ("O=C(Nc1nc(-c2ccccn2)cs1)c1ccc([N+](=O)[O-])o1", "yes"),
    ("COC(=O)CNc1nc(-c2cccnc2)nc2ccccc12", "no"),
    ("Cc1cc(OCC(=O)NC2CC2)c2c(C)c(C)c(=O)oc2c1", "no"),
]

Could you please find out whether `Nc1nc2ccccc2cc1C(=O)NCc1ccc(-c2ccccc2)cc1` has inhibition that meets 30% or exceeds it?
no

Next entry: `CCN1/C(=C/c2ccc3cc(C)ccc3[n+]2CC)Sc2ccccc21`
yes

* * *

- tested-target: Steroidogenic factor 1 (Homo sapiens) (UniProt Q13285)
- Sequence (Q13285 whole entry, looked up): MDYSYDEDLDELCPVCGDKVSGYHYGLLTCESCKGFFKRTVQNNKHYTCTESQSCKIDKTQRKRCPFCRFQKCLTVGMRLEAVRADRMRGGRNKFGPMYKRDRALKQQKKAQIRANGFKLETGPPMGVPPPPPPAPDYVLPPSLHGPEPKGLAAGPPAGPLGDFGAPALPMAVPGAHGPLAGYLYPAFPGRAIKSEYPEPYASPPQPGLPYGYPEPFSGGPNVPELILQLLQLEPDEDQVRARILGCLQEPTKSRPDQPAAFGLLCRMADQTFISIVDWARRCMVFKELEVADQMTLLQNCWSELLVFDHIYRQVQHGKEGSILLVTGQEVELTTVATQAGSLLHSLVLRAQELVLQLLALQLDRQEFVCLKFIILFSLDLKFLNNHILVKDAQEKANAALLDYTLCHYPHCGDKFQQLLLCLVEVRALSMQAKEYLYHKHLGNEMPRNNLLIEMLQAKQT
- test-protocol: SF1 (NR5A1) inverse agonists, counter-screen for LRH-1 inverse agonist project, cell-based, luminescence, high throughput (AID 651614);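 note: cells cotransfected with StAR promoter reporter and SF1 expression vector; 0% = vehicle on cells with receptor and 100% = vehicle on cells lacking receptor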
- experimental-parameters: cell-based SF1 luciferase reporter, at 3.6 µM, stronger effect = higher value
readout: inhibition (%)
API: value field is a number in %; no unit string.

Solved cases below.
# compound, readout, units-text, number
records = [
    ("O=C(COc1ccc(C(=O)c2ccccc2)cc1)NCc1ccc(F)cc1", "inhibition", "%", 37.9),
    ("CC(=O)OC[C@]12CC[C@H]3[C@@](C)(CC[C@H]4C(C)(C)CCC[C@]34C)[C@@H]1CC(C1=CC(=O)OC1O)O2 (some centres undefined)", "inhibition", "%", 97.1),
    ("CC(C)c1ccc(/C=C(\\c2nc3ccccc3[nH]2)S(=O)(=O)c2ccccc2)cc1", "inhibition", "%", 54.7),
    ("Nn1c(SCC(=O)Nc2c(F)cc(F)cc2Br)nnc1C1CCCCC1", "inhibition", "%", 27.5),
    ("CC1CCC(C(C)C)C(OC(=O)Cn2c(-c3ccc(F)cc3)[n+](C)c3ccccc32)C1 (centres undefined)", "inhibition", "%", 59.9),
]

Shift focus to the following entry.
Given `Cc1c(Cl)cccc1NC(=O)CSc1sc2c(O)cc(=O)[nH]c2c1C#N` , state its recorded inhibition.
29.2

* * *

- Test system: transactivating tegument protein VP16 (Human herpesvirus 1), Gal4-VP16 luciferase reporter
- test-protocol: VP16 transactivation inhibitors, counter-screen for SRC3 inhibitor project, cell-based, luminescence, high throughput (AID 588794)
- experimental-parameters: mammalian cells, VP16-driven luciferase reporter luminescence; at 3.6 µM; stronger effect = higher value
readout: inhibition (%)
API: value field is a number in %; no unit string.

# molecule, inhibition [%]
rows = [
    ("CC(C)c1nc(Cl)c(C#N)c2c1CCCC2", 37),
    ("O=C(c1ccc(S(=O)(=O)Cc2cc(F)ccc2F)c([N+](=O)[O-])c1)N1CCCCC1", -0.48),
    ("C/C(=N\\Nc1ccc2nncn2n1)c1ccccn1", 65.5),
    ("CC(C)NC(=O)N(C)C[C@H]1Oc2ccc(NS(=O)(=O)c3ccc(Cl)cc3)cc2CC(=O)N([C@@H](C)CO)C[C@@H]1C", -1.86),
]

Given `C[C@H](NC(=O)Nc1ccccc1F)C(=O)O` , state its recorded inhibition.
3.39

Next entry: `CCOC(=O)c1cc2sccc2n1CC(=O)N1CCc2ccccc21`
29.2

Next entry: `NC(=S)N/N=C\c1c(OCc2ccccc2Cl)ccc2ccccc12`
27.6

Next entry: `COc1ccc(OCC(=O)N/N=C/c2ccc(O[C@@H]3O[C@H](CO)[C@@H](O)[C@H](O)[C@H]3O)cc2)cc1`
60.1

Next entry: CCOC(=O)C1CCCN(c2c(NCCCN(C)c3ccccc3)c(=O)c2=O)C1 (stereo not given)
-3.6

Next entry: `C=CCOn1c(C)c(C(C)=O)c2c3nonc3ccc21`
25.4

Next entry: CC1Cc2cc(-c3csc(NC(=O)Cc4ccccc4)n3)ccc2N1S(C)(=O)=O (stereo not given)
24.3

Next entry: CCCCC(=O)NC(c1ccc(Cl)cc1)c1ccc2cccnc2c1O (stereo not given)
62.4

Next entry: `CCc1ccc(/C=C/c2c([N+](=O)[O-])c(=O)n(C)c(=O)n2C)cc1`
41.3

Next entry: `CCOc1ccccc1O[C@H](c1ccccc1)[C@H]1CNCCO1`
-0.26

Next entry: `Cc1nc2c(-c3ccc(F)cc3)cnn2c(N)c1-c1ccc(F)cc1`
9.51
